Test system: NCI-H1944;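 also: CTB read-out in 384-well plates, triplicate wells, NPI normalised per plate against 1 µM phenylarsine oxide (0) and 0.1% DMSO (1) controls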
Test: normalised cell viability (NPI; 0 = phenylarsine oxide control, 1 = DMSO control) (fraction of DMSO control); NCI-H1944 is a non-small cell lung cancer line; higher = more viable cells (less compound toxicity)
Details: glucocorticoid arm: vehicle; compound 5 µM; 6 days
Where a name gives a salt, the structure may show the parent alone. In all, about 1,900 compounds were measured (“normalised cell viability (NPI; 0 = phenylarsine oxide control, 1 = DMSO control)”: median about 1, lowest 2% from about 0.039 on). This is one part of a sample in which the lowest values are shown more often than they occur.
Entries and their normalised cell viability values follow.
MEASURED PARAMETER: normalised cell viability

# MOLECULE, TEST TARGET, MEASURED PARAMETER, ENDPOINT RESULT
rows = [
    ("Cc1c(F)ccc(C(=O)Nc2cc([N+](=O)[O-])ccc2N2CCN(C)CC2)c1Cl", "NCI-H1944", "normalised cell viability", 0.996),
    ("CC(C)[C@H](C(=O)Nc1ccc(C(=O)NO)cc1)c1ccccc1", "NCI-H1944", "normalised cell viability", 0.00052),
    ("O=C(CCCCCCNC(=O)c1cnc(N(c2ccccc2)c2ccccc2)nc1)NO", "NCI-H1944", "normalised cell viability", 0.987),
    ("C=CCN1CCc2c(cc(O)c(O)c2Cl)C(c2ccccc2)C1 (racemic) [(±)-Chloro-APB hydrobromide]", "NCI-H1944", "normalised cell viability", 0.995),
    ("CCCCN(Cc1ccc(C(=O)NO)cc1)C(=O)Nc1ccccc1 [Nexturastat A]", "NCI-H1944", "normalised cell viability", 0.967),
    ("O=C1c2c(O)cc(O)cc2O[C@H](c2ccc(O)c(O)c2)[C@H]1O (racemic) [(±)-Taxifolin]", "NCI-H1944", "normalised cell viability", 1.02),
    ("CCC[C@H](NC(=O)/C(C#N)=C/c1cccc(Br)n1)c1ccccc1", "NCI-H1944", "normalised cell viability", 0.339),
    ("CC(=O)NCC(=O)N1[C@@H]2CC[C@H]1c1ccc(Nc3ncc(C(F)(F)F)c(NC4CCC4)n3)cc12", "NCI-H1944", "normalised cell viability", 0.201),
    ("CC(C)C[C@H](NC(=O)[C@H](CCc1ccccc1)NC(=O)CN1CCOCC1)C(=O)N[C@@H](Cc1ccccc1)C(=O)N[C@@H](CC(C)C)C(=O)[C@@]1(C)CO1 [Carfilzomib]", "NCI-H1944", "normalised cell viability", 0.0026),
    ("CCCCCCCCCC(=O)NC(CN1CCOCC1)[C@H](O)c1ccccc1 (mixture of isomers)", "NCI-H1944", "normalised cell viability", 0.997),
    ("[Cl-].[Li+] [Lithium Chloride]", "NCI-H1944", "normalised cell viability", 1),
    ("OC(CN1CCC(Cc2ccc(F)cc2)CC1)c1ccc(Cl)cc1 (stereo not drawn) [Eliprodil]", "NCI-H1944", "normalised cell viability", 0.997),
    ("NC(=O)Nc1cc(-c2cccc(F)c2)sc1C(=O)N[C@H]1CCCNC1", "NCI-H1944", "normalised cell viability", 0.158),
    ("O=C(NC1CCNCC1)c1n[nH]cc1NC(=O)c1c(Cl)cccc1Cl", "NCI-H1944", "normalised cell viability", 0.0072),
    ("C[N+](C)(C)CC=O [Betaine aldehyde chloride]", "NCI-H1944", "normalised cell viability", 0.98),
    ("N[C@H](C(=O)O)[C@H]1C[C@@H]1C(=O)O [(2S,1'S,2'S)-2-(carboxycyclopropyl)glycine]", "NCI-H1944", "normalised cell viability", 0.988),
    ("C[C@H]1C[C@H]2[C@@H]3CCC4=CC(=O)C=C[C@]4(C)[C@@]3(Cl)[C@@H](O)C[C@]2(C)[C@@]1(O)C(=O)CO [Beclomethasone]", "NCI-H1944", "normalised cell viability", 0.738),
    ("O=C(CCCCCCNC(=O)c1cnc(N(c2ccccc2)c2ccccc2)nc1)NO [Rocilinostat (ACY-1215)]", "NCI-H1944", "normalised cell viability", 0.918),
]

Where do the numbers come from? From the supplement of paper PMC8285479.
